Origin of values: patent US10550150B2

Listing: EC50 of selected molecules
target: Kappa (κ) opioid receptors (KOR) (Homo sapiens, UniProt P41145); construct: host or cells: unnamed cells grown in Ham's F-12 medium; experiment: In vitro KOR agonistic activity, cAMP based functional assay; assay type: cell-based; conditions: refers to Table-4; read-out: in vitro KOR agonistic activity EC50
Sequence (P41145 whole entry): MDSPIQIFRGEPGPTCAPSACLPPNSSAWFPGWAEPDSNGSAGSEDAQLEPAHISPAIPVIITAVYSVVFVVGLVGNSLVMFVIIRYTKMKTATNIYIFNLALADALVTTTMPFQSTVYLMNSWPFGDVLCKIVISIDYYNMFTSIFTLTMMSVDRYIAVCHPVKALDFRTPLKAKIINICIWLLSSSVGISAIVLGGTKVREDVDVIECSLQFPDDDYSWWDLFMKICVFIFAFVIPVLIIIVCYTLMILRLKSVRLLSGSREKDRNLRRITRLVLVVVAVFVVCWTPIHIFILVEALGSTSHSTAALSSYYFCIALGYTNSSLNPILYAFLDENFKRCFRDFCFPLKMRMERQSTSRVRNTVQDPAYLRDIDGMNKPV

The cases that follow already have their EC50 on record.
MOLECULE: CC(C)CC(NC(=O)C(Cc1ccccc1)NC(=O)C(N)Cc1ccccc1)C(=O)NC(CCCCN)C(=O)N1CC2=C(CN(CC(=O)O)C2)C1 (stereo not drawn)
SUBJECT OF TEST: Kappa (κ) opioid receptors (KOR) (Homo sapiens, UniProt P41145)
READOUT KIND: EC50
OBSERVED VALUE: < 0.1 nM
--
MOLECULE: CC(C)CC(NC(=O)C(Cc1ccccc1)NC(=O)C(N)Cc1ccccc1)C(=O)NC(CCCCN)C(=O)N1CC2CN(CC(=O)O)CC2C1 (stereo not drawn)
SUBJECT OF TEST: Kappa (κ) opioid receptors (KOR) (Homo sapiens, UniProt P41145)
READOUT KIND: EC50
OBSERVED VALUE: < 0.1 nM

query: I'd like to know its EC50. The molecule in question is CCOC(=O)CN1CC2CN(C(=O)C(CCCCN)NC(=O)C(CC(C)C)NC(=O)C(Cc3ccccc3)NC(=O)C(N)Cc3ccccc3)CC2C1 (stereo not drawn)
result: < 0.1 nM

###

Listing: pEC50 of selected compounds
biological target: Kappa (κ) opioid receptors (KOR) (Homo sapiens, UniProt P41145); construct: host or cells: unnamed cells grown in Ham's F-12 medium; experiment: In vitro KOR agonistic activity, cAMP based functional assay; type: cell-based; conditions: cAMP based functional assay, forskolin stimulated; read-out: In-vitro EC50
*1 amine or outer side, *2 acyl side, *3 side chain or, on linkers, in order; H or OH if unused. Where a SMILES comes first, the peptide text is derived from it. [ ]: non-standard residue; d: D form. The star is where a group is joined. X26 = O=C(CN1CC2CC(C1)N2*)OCc1ccccc1; X9 = O=C(CN1CC2CC(C1)N2[*:1])[*:2]; X4 = O=C(O)CN1CC2CC(C1)N2*; Ac6c = NC1(C(=O)O)CCCCC1; X10 = OCCN(CCO)*
A value of pEC50 is the negative decimal logarithm of a concentration given in moles per litre.

COMPOUND: NCCCCC(NC(=O)C1(NC(=O)C(Cc2ccccc2)NC(=O)C(N)Cc2ccccc2)CCCCC1)C(=O)N1C2CC1CN(CC(=O)OCc1ccccc1)C2 (centres unmarked) [Compound 50] (H-FF[Ac6c]K-X26; configuration not given here)
SUBJECT OF TEST: Kappa (κ) opioid receptors (KOR) (Homo sapiens, UniProt P41145)
OBSERVED VALUE: 11.10
//
COMPOUND: CCOC(=O)C1CC2CN(C(=O)C(CCCCN)NC(=O)C(CC(C)C)NC(=O)C(Cc3ccccc3)NC(=O)C(N)Cc3ccccc3)CC2C1 (centres unmarked) [Compound 27]
SUBJECT OF TEST: Kappa (κ) opioid receptors (KOR) (Homo sapiens, UniProt P41145)
OBSERVED VALUE: 11.05
//
COMPOUND: CCOC(=O)CN1CC2CN(C(=O)C(CCCCN)NC(=O)C(CC(C)C)NC(=O)C(Cc3ccccc3)NC(=O)C(N)Cc3ccccc3)CC2C1 (centres unmarked) [Compound 15]
SUBJECT OF TEST: Kappa (κ) opioid receptors (KOR) (Homo sapiens, UniProt P41145)
OBSERVED VALUE: 11.15
//
COMPOUND: CC(C)CC(NC(=O)C(Cc1ccccc1)NC(=O)C(N)Cc1ccccc1)C(=O)NC(CCCCN)C(=O)N1CC2CC(=O)CC2C1 (centres unmarked) [Compound 23]
SUBJECT OF TEST: Kappa (κ) opioid receptors (KOR) (Homo sapiens, UniProt P41145)
OBSERVED VALUE: 10.07

query: I'd like to know its pEC50. The compound in question is CC(C)CC(NC(=O)C(Cc1ccccc1)NC(=O)C(N)Cc1ccccc1)C(=O)NC(CCCCN)C(=O)N1C2CC1CN(CC(=O)N(CC(=O)O)CC(=O)O)C2 (centres unmarked) [Compound 99]
result: 10.80

query: Now consider CC(C)CC(NC(=O)C(Cc1ccccc1)NC(=O)C(N)Cc1ccccc1)C(=O)NC(CCCCN)C(=O)N1CC2=C(CN(C(=O)CO)C2)C1 (centres unmarked) [Compound 10] .
result: 9.40

query: Now consider CC(C)CC(NC(=O)C(Cc1ccccc1)NC(=O)C(N)Cc1ccccc1)C(=O)NC(CCCCN)C(=O)N1CC2=C(CN(CC(=O)O)C2)C1 (centres unmarked) [Compound 4] .
result: 10.33

query: Now consider CC(C)CC(NC(=O)C(Cc1ccccc1)NC(=O)C(N)Cc1ccccc1)C(=O)NC(CCCCN)C(=O)N1C2CC1CN(CC(=O)N(CCO)CCO)C2 (centres unmarked) [Compound 101] (H-FFLK[X9]-X10; configuration not given here) .
result: 10.92

query: Now consider CC(C)CC(NC(=O)C(Cc1ccccc1)NC(=O)C(N)Cc1ccccc1)C(=O)NC(CCCCN)C(=O)N1C2CNCC1C2 (centres unmarked) [Compound 32] .
result: 10.70

query: Now consider CC(C)CC(NC(=O)C(Cc1ccccc1)NC(=O)C(N)Cc1ccccc1)C(=O)NC(CCCCN)C(=O)N1CC2CN(CC(N)=O)CC2C1 (stereo not drawn) [Compound 17, H2N-Phe-Phe-Leu-Lys-Hpp-CONH2] .
result: 9.42

query: Now consider NCCCCC(NC(=O)C1(NC(=O)C(Cc2ccccc2)NC(=O)C(N)Cc2ccccc2)CCCCC1)C(=O)N1C2CC1CN(CC(=O)O)C2 (centres unmarked) [Compound 41] (H-FF[Ac6c]K-X4; configuration not given here) .
result: 10.82
